System: Splenocyte
Assay explanation: Immunomodulatory activity in Swiss albino mouse splenocytes assessed as cell viability at 10 uM by measuring inhibition of stimulation index incubated for 72 hrs in presence of mitogenic stimulus phytohaemagglutinin by MTT assay relative to indomethacin
Type: functional
Experimental parameters: read-out: Activity
Provide the reported viability at 10 µM of each item.
State the value with its unit after it.

Request: State the recorded viability at 10 µM for this entry: "COc1cc(/C=C/C(=O)/C=C(O)/C=C/c2ccc(OC(=O)CNC(=O)OC(C)(C)C)c(OC)c2)ccc1OC(=O)CNC(=O)OC(C)(C)C"
Result: 57.4%

Request: State the recorded viability at 10 µM for this entry: "COc1cc(/C=C/C(=O)/C=C(O)/C=C/c2ccc(OC(=O)[C@H](Cc3ccccc3)NC(=O)OCc3ccccc3)c(OC)c2)ccc1OC(=O)[C@H](Cc1ccccc1)NC(=O)OCc1ccccc1"
Result: 41.5%

Request: State the recorded viability at 10 µM for this entry: "COc1cc(/C=C/C(=O)/C=C(O)/C=C/c2ccc(OC(=O)CNC(=O)OCC3c4ccccc4-c4ccccc43)c(OC)c2)ccc1OC(=O)CNC(=O)OCC1c2ccccc2-c2ccccc21"
Result: 68.8%

Request: State the recorded viability at 10 µM for this entry: "COc1cc(/C=C/C(=O)/C=C(O)/C=C/c2ccc(OC(=O)[C@H](CCSC)NC(=O)OC(C)(C)C)c(OC)c2)ccc1OC(=O)[C@H](CCSC)NC(=O)OC(C)(C)C"
Result: 88.5%

Request: State the recorded viability at 10 µM for this entry: COc1cc(/C=C/C(=O)/C=C(O)/C=C/c2ccc(OC(=O)C(C)NC(=O)OCc3ccccc3)c(OC)c2)ccc1OC(=O)C(C)NC(=O)OCc1ccccc1 (stereo unspecified)
Result: 103%

Request: State the recorded viability at 10 µM for this entry: "COc1cc(/C=C/C(=O)/C=C(O)/C=C/c2ccc(OC(=O)[C@H](CCSC)NC(=O)OCC3c4ccccc4-c4ccccc43)c(OC)c2)ccc1OC(=O)[C@H](CCSC)NC(=O)OCC1c2ccccc2-c2ccccc21"
Result: 113%

Request: State the recorded viability at 10 µM for this entry: COc1cc(/C=C/C(=O)/C=C(O)/C=C/c2ccc(OC(=O)C(C)N)c(OC)c2)ccc1OC(=O)C(C)N.Cl.Cl (stereo unspecified)
Result: 63.2%

Request: State the recorded viability at 10 µM for this entry: "COc1cc(/C=C/C(=O)/C=C(O)/C=C/c2ccc(OC(=O)[C@H](Cc3ccccc3)NC(=O)OC(C)(C)C)c(OC)c2)ccc1OC(=O)[C@H](Cc1ccccc1)NC(=O)OC(C)(C)C"
Result: 47.2%

Request: State the recorded viability at 10 µM for this entry: "CC[C@H](C)[C@H](N)C(=O)Oc1ccc(/C=C/C(=O)/C=C(O)/C=C/c2ccc(OC(=O)[C@@H](N)[C@@H](C)CC)c(OC)c2)cc1OC.Cl.Cl"
Result: 76%

Request: State the recorded viability at 10 µM for this entry: "COc1cc(/C=C/C(=O)/C=C(O)/C=C/c2ccc(OC(=O)[C@@H](NC(=O)OCC3c4ccccc4-c4ccccc43)C(C)C)c(OC)c2)ccc1OC(=O)[C@@H](NC(=O)OCC1c2ccccc2-c2ccccc21)C(C)C"
Result: 47.5%

Request: State the recorded viability at 10 µM for this entry: "COc1cc(/C=C/C(=O)/C=C(O)/C=C/c2ccc(OC(=O)[C@H](C)NC(=O)OCC3c4ccccc4-c4ccccc43)c(OC)c2)ccc1OC(=O)[C@H](C)NC(=O)OCC1c2ccccc2-c2ccccc21"
Result: 54.4%

====

Provide the reported IC50 of each item.
Test system: PC-3
Assay explanation: Antiproliferative activity against human PC3 cells assessed as inhibition of cell growth after 72 hrs by MTT assay
Format: functional, cell-based
Experimental parameters: PC-3, 72 h
State the value with its unit after it.

Request: Test system PC-3; read-out IC50; what value for "COc1cc(/C=C/C(=O)/C=C(O)/C=C/c2ccc(OC(=O)[C@H](C)N)c(OC)c2)ccc1OC(=O)[C@H](C)N.Cl.Cl" ?
Result: 31.5 µM

Request: Test system PC-3; read-out IC50; what value for COc1cc(/C=C/C(=O)/C=C(O)/C=C/c2ccc(OC(=O)C(C)N)c(OC)c2)ccc1OC(=O)C(C)N.Cl.Cl (centres undefined) ?
Result: 21.7 µM

Request: Test system PC-3; read-out IC50; what value for "CC[C@H](C)[C@H](N)C(=O)Oc1ccc(/C=C/C(=O)/C=C(O)/C=C/c2ccc(OC(=O)[C@@H](N)[C@@H](C)CC)c(OC)c2)cc1OC.Cl.Cl" ?
Result: 34.4 µM

Request: Test system PC-3; read-out IC50; what value for "COc1cc(/C=C/C(=O)/C=C(O)/C=C/c2ccc(OC(=O)[C@H](N)CCSC)c(OC)c2)ccc1OC(=O)[C@H](N)CCSC.Cl.Cl" ?
Result: 41.5 µM

====

Provide the reported inhibition in vivo at 10 mg/kg of each item.
System: Rattus norvegicus
Assay explanation: Anti-inflammatory activity in Wistar rat assessed as inhibition of carrageenan-induced paw edema at 10 mg/kg, ip pretreated for 1 hr followed by carrageenan challenge and measured after 3 hr relative to control (reference value: 0.00 +/-0.1 %)
Format: functional
Experimental parameters: time 4 hrs
Record the value in %, omitting the unit from your answer.

Request: State the recorded inhibition in vivo at 10 mg/kg for this entry: "COc1cc(/C=C/C(=O)/C=C(O)/C=C/c2ccc(OC(=O)[C@H](Cc3ccccc3)NC(=O)OC(C)(C)C)c(OC)c2)ccc1OC(=O)[C@H](Cc1ccccc1)NC(=O)OC(C)(C)C"
Result: 53

Request: State the recorded inhibition in vivo at 10 mg/kg for this entry: "COc1cc(/C=C/C(=O)/C=C(O)/C=C/c2ccc(OC(=O)[C@@H](C)NC(=O)OC(C)(C)C)c(OC)c2)ccc1OC(=O)[C@@H](C)NC(=O)OC(C)(C)C"
Result: 39

Request: State the recorded inhibition in vivo at 10 mg/kg for this entry: "COc1cc(/C=C/C(=O)/C=C(O)/C=C/c2ccc(OC(=O)[C@@H](N)CCSC)c(OC)c2)ccc1OC(=O)[C@@H](N)CCSC.Cl.Cl"
Result: 73

Request: State the recorded inhibition in vivo at 10 mg/kg for this entry: "COc1cc(/C=C/C(=O)/C=C(O)/C=C/c2ccc(OC(=O)[C@@H](NC(=O)OCC3c4ccccc4-c4ccccc43)C(C)C)c(OC)c2)ccc1OC(=O)[C@@H](NC(=O)OCC1c2ccccc2-c2ccccc21)C(C)C"
Result: 50

Request: State the recorded inhibition in vivo at 10 mg/kg for this entry: "COc1cc(/C=C/C(=O)/C=C(O)/C=C/c2ccc(OC(=O)[C@@H](CCSC)NC(=O)OCc3ccccc3)c(OC)c2)ccc1OC(=O)[C@@H](CCSC)NC(=O)OCc1ccccc1"
Result: 85

Request: State the recorded inhibition in vivo at 10 mg/kg for this entry: CC(C)Cc1ccc(C(C)C(=O)O)cc1 (stereo unspecified) [IBUPROFEN]
Result: 65

====

Provide the reported inhibition in vivo at 10 mg/kg of each item.
System: Rattus norvegicus
Assay explanation: Anti-inflammatory activity in Wistar rat assessed as inhibition of carrageenan-induced paw edema at 10 mg/kg, ip pretreated for 1 hr followed by carrageenan challenge and measured after 3 hr relative to control (reference value: 0.00 +/-0.1 %)
Format: functional
Experimental parameters: time 4 hrs
State the value with its unit after it.

Request: State the recorded inhibition in vivo at 10 mg/kg for this entry: "COc1cc(/C=C/C(=O)/C=C(O)/C=C/c2ccc(OC(=O)[C@H](CCSC)NC(=O)OCc3ccccc3)c(OC)c2)ccc1OC(=O)[C@H](CCSC)NC(=O)OCc1ccccc1"
Result: 86%

Request: State the recorded inhibition in vivo at 10 mg/kg for this entry: "COc1cc(/C=C/C(=O)/C=C(O)/C=C/c2ccc(OC(=O)CCNC(=O)OC(C)(C)C)c(OC)c2)ccc1OC(=O)CCNC(=O)OC(C)(C)C"
Result: 45%

Request: State the recorded inhibition in vivo at 10 mg/kg for this entry: "COc1cc(/C=C/C(=O)/C=C(O)/C=C/c2ccc(OC(=O)[C@H](CCC(N)=O)NC(=O)OCc3ccccc3)c(OC)c2)ccc1OC(=O)[C@H](CCC(N)=O)NC(=O)OCc1ccccc1"
Result: 45%

====

System: Rattus norvegicus
Assay explanation: Anti-inflammatory activity in Wistar rat assessed as inhibition of carrageenan-induced paw edema at 10 mg/kg, ip pretreated for 1 hr followed by carrageenan challenge and measured after 3 hr relative to control (reference value: 0.00 +/-0.1 %)
Type: functional
Experimental parameters: time 4 hrs
Provide the reported inhibition in vivo at 10 mg/kg of each item.

Request: State the recorded inhibition in vivo at 10 mg/kg for this entry: "COc1cc(/C=C/C(=O)/C=C(O)/C=C/c2ccc(OC(=O)[C@@H](N)Cc3ccccc3)c(OC)c2)ccc1OC(=O)[C@@H](N)Cc1ccccc1.Cl.Cl"
Result: 63%

Request: State the recorded inhibition in vivo at 10 mg/kg for this entry: "COc1cc(/C=C/C(=O)/C=C(O)/C=C/c2ccc(OC(=O)[C@H](C)NC(=O)OC(C)(C)C)c(OC)c2)ccc1OC(=O)[C@H](C)NC(=O)OC(C)(C)C"
Result: 20%

Request: State the recorded inhibition in vivo at 10 mg/kg for this entry: "COc1cc(/C=C/C(=O)/C=C(O)/C=C/c2ccc(OC(=O)[C@@H](C)N)c(OC)c2)ccc1OC(=O)[C@@H](C)N.Cl.Cl"
Result: 74%

Attribution: ChEMBL document CHEMBL4765295
